The measurements presented in this section are drawn from patent US20080311126A1.

- Test system: H596 lung adenosquamous carcinoma cells
- measurement-notes: Relative colony forming efficiency (Example 17, Table 13)
- Assay type: cell-based, human
- assay-context: averages of 2-8 determinations
Oligonucleotides are written 5' to 3', each unit as a sugar letter and its base; * is a phosphorothioate linkage, no mark a phosphodiester; rarer units and linkages stand in square brackets, end groups in braces. Plain capitals give the bases only. d = 2'-deoxy (DNA)
Recorded measurements of Reduced relative colony forming efficiency, 11596 (% inhibition of colony forming ability), one per entry
Write the value in % as a bare number.

Sample answers from the record:
>  <substance>
GGCGACCCCTCACTCCAGCA (antisense dG*dG*dC*dG*dA*dC*dC*dC*dC*dT*dC*dA*dC*dT*dC*dC*dA*dG*dC*dA) [AS-II-114-20]

>  <value-units>
%

>  <experimental-value>
46.3

$$$$
>  <substance>
GAGCAGCCAGGACAGGACGG (antisense dG*dA*dG*dC*dA*dG*dC*dC*dA*dG*dG*dA*dC*dA*dG*dG*dA*dC*dG*dG) [AS-II-151-20]

>  <value-units>
%

>  <experimental-value>
69.12

$$$$
>  <substance>
CCCAGGACACTACACAAGCC (antisense dC*dC*dC*dA*dG*dG*dA*dC*dA*dC*dT*dA*dC*dA*dC*dA*dA*dG*dC*dC) [AS-II-2026-20]

>  <value-units>
%

>  <experimental-value>
84.16

$$$$
>  <substance>
G*CG*AAG*CAG*AGC*GAG*CAGC*C (antisense dG*dCdG*dAdAdG*dCdAdG*dAdGdC*dGdAdG*dCdAdGdC*dC) [AS-II-163-20]

>  <value-units>
%

>  <experimental-value>
32.08

$$$$
>  <substance>
CCTGTCTTCTATCTGGCACC (antisense dC*dC*dT*dG*dT*dC*dT*dT*dC*dT*dA*dT*dC*dT*dG*dG*dC*dA*dC*dC) [AS-II-1989-20]

>  <value-units>
%

>  <experimental-value>
56.33

$$$$

Now for the substance whose Reduced relative colony forming efficiency, 11596 (% inhibition of colony forming ability) we want.
Request: Name the recorded Reduced relative colony forming efficiency, 11596 (% inhibition of colony forming ability) of the item AGGACTGGTTGTGAGGTAGC (antisense dA*dG*dG*dA*dC*dT*dG*dG*dT*dT*dG*dT*dG*dA*dG*dG*dT*dA*dG*dC) [AS-II-1499-20] in your answer.
Result: 78.3
